Values were extracted from patent US20060276464A1.

# target: UniProt Q8N474
# Sequence (Q8N474 32-314): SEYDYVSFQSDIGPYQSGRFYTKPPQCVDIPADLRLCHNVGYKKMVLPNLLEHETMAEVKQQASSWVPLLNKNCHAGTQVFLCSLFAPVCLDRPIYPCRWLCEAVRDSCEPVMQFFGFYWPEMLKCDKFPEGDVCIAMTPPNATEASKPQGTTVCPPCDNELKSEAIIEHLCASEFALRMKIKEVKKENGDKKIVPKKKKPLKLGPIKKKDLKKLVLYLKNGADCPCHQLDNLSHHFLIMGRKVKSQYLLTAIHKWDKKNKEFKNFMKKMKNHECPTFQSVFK
# test.summary: Cell-based assay for in vitro measurement of SFRP-1/SARP2 antagonist activity (U2OS cells co-transfected with 16x TCF-tk-Luciferase reporter, Wnt and hSFRP-1);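 note: U2OS cells co-transfected with a TCF-tk luciferase reporter, a Wnt vector, hSFRP-1 or empty vector and CMV-βgal, luciferase luminescence read in cell lysates alongside βgal activity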
# condition.summary: U2OS, read-out: Fold Induction without SFRP-1, Conc 30 μM; without SFRP-1, single dose
experimental.endpoint: fold induction at 30 µM
In your answer, state the number alone without any accompanying words.

Some solved entries appear below for comparison.
smiles.string | fold induction at 30 µM
Cc1ccc(S(=O)(=O)c2ccc(F)cc2)cc1S(=O)(=O)NCCc1ccccc1Cl | 0.4
NC(=O)CCNS(=O)(=O)c1cccc(S(=O)(=O)c2ccccc2)c1 | 1
O=S(=O)(NCCCN1CCOCC1)c1cccc(S(=O)(=O)c2ccccc2)c1 | 1.1
CC(=O)NCCNS(=O)(=O)c1cccc(S(=O)(=O)c2ccccc2)c1 | 1

Quote fold induction at 30 µM reported for `COc1cccc(CCNS(=O)(=O)c2cc(S(=O)(=O)c3ccc(C)cc3)ccc2C)c1` please. 0.3

Please look at this molecule and report its fold induction at 30 µM: `N#CCCNS(=O)(=O)c1cccc(S(=O)(=O)c2ccccc2)c1` 1

Please look at this molecule and report its fold induction at 30 µM: `COC(=O)CCNS(=O)(=O)c1cccc(S(=O)(=O)c2ccccc2)c1` 1

Output measured fold induction at 30 µM for this item: `CCOc1ccc(CCNS(=O)(=O)c2cc(S(=O)(=O)c3ccccc3)ccc2C)cc1` 0.9

Please supply the value of reported fold induction at 30 µM for the item `CCOc1ccc(CCNS(=O)(=O)c2cc(S(=O)(=O)c3ccccc3)ccc2C)cc1OC` 0.9
